Test system: FXR:RXRa (NR concentration 270 nM, RXRa partner concentration 90 nM)
Assay text: PBM binding z-score (relative to random genomic background probes); higher = stronger binding; sequences stand for … in GC…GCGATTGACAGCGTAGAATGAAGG
Catalogue of sequences with associated PBM binding z-score
Reported metric: PBM binding z-score

Polymer sequence	Reported metric	Obs value
CCTCGGAGGACAATAGGAGGTCAGAGCTGCCAGA	PBM binding z-score	0.746
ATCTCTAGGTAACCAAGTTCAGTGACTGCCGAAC	PBM binding z-score	0.544
CGTCCAAGGTCATAGTAGGTCAGTGAAGACAGAT	PBM binding z-score	7.5
CCTAGTTGGTCAGGAGGTCACACTCCGGATATGA	PBM binding z-score	3.59
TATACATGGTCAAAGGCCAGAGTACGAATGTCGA	PBM binding z-score	0.397
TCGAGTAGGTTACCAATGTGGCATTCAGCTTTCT	PBM binding z-score	0.261
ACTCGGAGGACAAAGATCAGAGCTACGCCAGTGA	PBM binding z-score	-0.308
CCTTACGGGTCACTGACGGGTTATAGCATTTGGA	PBM binding z-score	5.28
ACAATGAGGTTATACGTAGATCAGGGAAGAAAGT	PBM binding z-score	2.38
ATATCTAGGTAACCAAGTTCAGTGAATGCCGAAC	PBM binding z-score	0.636
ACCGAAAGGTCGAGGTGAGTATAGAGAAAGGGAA	PBM binding z-score	4.42
CAAACTAGGTCACAGAGGTCAAAGACCGTGCGTA	PBM binding z-score	7.36
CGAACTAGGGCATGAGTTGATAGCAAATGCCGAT	PBM binding z-score	-0.0776
TCTAGCAGGCCGGAGGGTCACTCAAGAGGTACGG	PBM binding z-score	0.786
CCTTACGGGTCAGTCCAGGTTATAGCATCGGAGT	PBM binding z-score	3.69
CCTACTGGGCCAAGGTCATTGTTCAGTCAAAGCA	PBM binding z-score	2.83
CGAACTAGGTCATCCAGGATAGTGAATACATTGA	PBM binding z-score	4.33
TGAATGATGTTATAAGATCAGGGAACGTTGCAAA	PBM binding z-score	-0.318
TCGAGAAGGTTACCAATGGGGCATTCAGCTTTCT	PBM binding z-score	0.688
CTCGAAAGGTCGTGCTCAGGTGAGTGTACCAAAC	PBM binding z-score	5.56
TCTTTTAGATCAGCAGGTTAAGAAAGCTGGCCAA	PBM binding z-score	0.304
TAACCAAGGTGAAGGTCGTTGATCCCTCTGTAGA	PBM binding z-score	2.07
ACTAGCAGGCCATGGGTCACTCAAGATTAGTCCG	PBM binding z-score	0.425
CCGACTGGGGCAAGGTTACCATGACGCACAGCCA	PBM binding z-score	-0.0845
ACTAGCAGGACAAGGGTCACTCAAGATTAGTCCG	PBM binding z-score	2.6
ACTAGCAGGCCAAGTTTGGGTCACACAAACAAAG	PBM binding z-score	0.341
